- Tested on: Plasmodium falciparum
- Procedure Text: Calibr Malaria Delayed Death Assay SOP
- Type: functional, organism-based
- Set-up: scale not given: in the data most compounds retested in dose-response had high values
- Study Conditions: concentration 4.99e-06 (unit not given; other assays of the set use mol/L)
The campaign covered roughly 38,000 compounds. About 1,200 (3.2%) showed an effect of 50% or more. The median lay at about -58%. The full list was thinned out, with strong results kept by preference.
Kind request: treat -20% as inclusive, so Percent Effect at -20% or higher is YES, anything lower is NO.

INPUT: Answer whether Percent Effect of `Cc1cnccc1N1CCN(C[C@]2(O)CCCN3CCCC[C@@H]32)CC1` is greater than or equal to -20%.
OUTPUT: YES

INPUT: Answer whether Percent Effect of `CN(C)C(=O)Cc1ccc(-c2cccc3c2CCNC3)cc1` is greater than or equal to -20%.
OUTPUT: NO

INPUT: Answer whether Percent Effect of `CC1CCN(CCCNC(=O)c2ccc(N(C)S(C)(=O)=O)cc2Cl)CC1` is greater than or equal to -20%.
OUTPUT: NO

INPUT: Answer whether Percent Effect of `COc1cccc(CNc2cc(C)nc(-c3ccncc3)n2)c1OC` is greater than or equal to -20%.
OUTPUT: YES

INPUT: Answer whether Percent Effect of `COC(=O)c1ccc(C(=O)N2CCC(c3nnc(C)s3)CC2)cc1` is greater than or equal to -20%.
OUTPUT: NO

INPUT: Answer whether Percent Effect of `O=C(COc1coc(CN2CCCCC2)cc1=O)Nc1ccccc1Cl` is greater than or equal to -20%.
OUTPUT: NO

INPUT: Answer whether Percent Effect of `O=C(NCCN1CCOCC1)c1ccc(-n2ccc3ccccc32)s1` is greater than or equal to -20%.
OUTPUT: YES

INPUT: Answer whether Percent Effect of Cc1nn2cccnc2c1C(=O)N1CCCC(n2cccn2)C1 (stereo not drawn) is greater than or equal to -20%.
OUTPUT: NO

INPUT: Answer whether Percent Effect of `C[C@@H]1CN(Cc2ccncc2)C[C@]1(C)O` is greater than or equal to -20%.
OUTPUT: NO

INPUT: Answer whether Percent Effect of `Cc1cccc2c1ccn2CC(=O)NC[C@@H]1CCCN2CCCC[C@H]12` is greater than or equal to -20%.
OUTPUT: YES

INPUT: Answer whether Percent Effect of `CCN(CC)CCNC(=O)c1ccc(-n2ccc3ccccc32)s1` is greater than or equal to -20%.
OUTPUT: YES

INPUT: Answer whether Percent Effect of `Cn1cc(CN2C[C@H]3CCC[C@@]3(COc3ccccn3)C2)cn1.O=C(O)C(F)(F)F.O=C(O)C(F)(F)F` is greater than or equal to -20%.
OUTPUT: YES

INPUT: Answer whether Percent Effect of CC(Nc1cnn(C)c(=O)c1Cl)c1ccc(F)c(F)c1 (stereo not drawn) is greater than or equal to -20%.
OUTPUT: NO

INPUT: Answer whether Percent Effect of `COCCN(Cc1ccoc1)S(=O)(=O)c1cccc(C(F)(F)F)c1` is greater than or equal to -20%.
OUTPUT: NO

INPUT: Answer whether Percent Effect of CC(=O)N(Cc1noc(C2CC2)n1)C1CCN(Cc2ccccn2)C1 (stereo not drawn) is greater than or equal to -20%.
OUTPUT: YES

INPUT: Answer whether Percent Effect of `COCc1n[nH]/c(=N/C(=O)COc2cnc(C)cc2O)s1` is greater than or equal to -20%.
OUTPUT: YES

INPUT: Answer whether Percent Effect of `O=C(Cn1ccc2ccc(F)cc21)NC[C@@H]1CCCN2CCCC[C@H]12` is greater than or equal to -20%.
OUTPUT: YES

INPUT: Answer whether Percent Effect of `CS(=O)(=O)N1C[C@H]2CCC[C@@]2(COc2ccccn2)C1.O=C(O)C(F)(F)F` is greater than or equal to -20%.
OUTPUT: YES

INPUT: Answer whether Percent Effect of `O=C(O)C(F)(F)F.O=C(O)C(F)(F)F.c1ccc(CN2C[C@H]3CCC[C@@]3(COCC3CC3)C2)nc1` is greater than or equal to -20%.
OUTPUT: NO

INPUT: Answer whether Percent Effect of `COc1cccc(CNc2nc(C)cc(C)n2)c1OC` is greater than or equal to -20%.
OUTPUT: NO

INPUT: Answer whether Percent Effect of `Cn1cc(CN2C[C@H]3CCC[C@@]3(COCC3CC3)C2)cn1.O=C(O)C(F)(F)F` is greater than or equal to -20%.
OUTPUT: YES

INPUT: Answer whether Percent Effect of `O=C(O)C(F)(F)F.O=C(c1cocn1)N1C[C@H]2CCC[C@@]2(COc2ccccn2)C1` is greater than or equal to -20%.
OUTPUT: YES

INPUT: Answer whether Percent Effect of `Cc1ccnc(N2CCN(C[C@]3(O)CCCN4CCCC[C@@H]43)CC2)c1` is greater than or equal to -20%.
OUTPUT: YES

INPUT: Answer whether Percent Effect of COc1ccc(C(=O)C2CCCN(CCc3ccccc3)C2)c(OC)c1 (stereo not drawn) is greater than or equal to -20%.
OUTPUT: YES

INPUT: Answer whether Percent Effect of `Cc1nc(COC[C@@]23CCC[C@@H]2CN(Cc2nccs2)C3)cs1.O=C(O)C(F)(F)F` is greater than or equal to -20%.
OUTPUT: YES

INPUT: Answer whether Percent Effect of Cc1cc(CN2CCOC(CNc3cccnn3)C2)no1 (stereo not drawn) is greater than or equal to -20%.
OUTPUT: NO

INPUT: Answer whether Percent Effect of O=C(C1CCOC1)N1CCN(Cc2cccnc2)c2ncccc2C1 (stereo not drawn) is greater than or equal to -20%.
OUTPUT: NO
